Tested on: EKVX NSCLC
Experiment: NCI tumour cell line growth inhibition, 384-well format
metric: GI50

Query: Sample CN1CCC(CNc2ccc3ncc(-c4cccc(OC(F)(F)F)c4)n3n2)CC1 — what was its GI50?
Response: 1480 nM

Query: GI50 lookup needed for O=C(c1ccc(OCCN2CCCCC2)cc1)c1c(-c2ccc(O)cc2)sc2cc(O)ccc12 , thanks.
Response: 6230 nM

Query: Form field: reported GI50 of Cc1cc(C(=O)Nc2nc3cccc(Cl)c3n2[C@@H]2CCCCN(C(=O)/C=C/CN(C)C)C2)ccn1
Response: 648 nM

Query: Consider the compound C[C@@H](N)C1CCC(C(=O)Nc2ccncc2)CC1 (some centres undefined) and give its measured GI50.
Response: > 100000 nM
